# credit: patent US6919086B1

biological target: IgE antibodies of the allergic patient serum pool We 6/97; assay: EAST inhibition, serum pool We 6/97
Measured Metric: allergenic potency (Prel) at 25% inhibition (relative to native Phl p 5b)
Reply with just the number.

Examples with their reported allergenic potency (Prel) at 25% inhibition (relative to native Phl p 5b) follow.
[[record]]
binder = "rPhl p 5b deletion mutant DM1 (deletion K50-P132, D49L) (protein) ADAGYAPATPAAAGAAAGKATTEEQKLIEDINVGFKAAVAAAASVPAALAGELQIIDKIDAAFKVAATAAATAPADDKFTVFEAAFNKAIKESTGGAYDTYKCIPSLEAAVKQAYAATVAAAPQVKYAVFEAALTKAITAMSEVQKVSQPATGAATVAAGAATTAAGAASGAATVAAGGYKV"
quantitative_result = 0.022

[[record]]
binder = "rPhl p 5b point mutant PM1 (N32D, D49L, K50A) (protein) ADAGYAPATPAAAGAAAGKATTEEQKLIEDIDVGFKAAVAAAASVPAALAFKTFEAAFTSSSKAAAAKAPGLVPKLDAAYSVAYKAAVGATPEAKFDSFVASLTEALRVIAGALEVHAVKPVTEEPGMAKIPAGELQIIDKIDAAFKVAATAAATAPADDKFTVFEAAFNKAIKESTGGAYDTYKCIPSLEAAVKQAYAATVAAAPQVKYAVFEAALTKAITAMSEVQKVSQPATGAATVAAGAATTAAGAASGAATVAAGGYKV"
quantitative_result = 0.415

[[record]]
binder = "natural Phl p 5b, purified by affinity chromatography (protein) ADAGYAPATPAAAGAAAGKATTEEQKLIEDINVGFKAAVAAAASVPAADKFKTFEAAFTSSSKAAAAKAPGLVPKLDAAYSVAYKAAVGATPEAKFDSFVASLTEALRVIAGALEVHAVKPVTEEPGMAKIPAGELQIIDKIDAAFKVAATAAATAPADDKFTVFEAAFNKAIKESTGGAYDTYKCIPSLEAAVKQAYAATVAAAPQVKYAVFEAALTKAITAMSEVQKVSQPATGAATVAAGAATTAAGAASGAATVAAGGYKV"
quantitative_result = 1

[[record]]
binder = "rPhl p 5b point mutant PM3 (A13C) (protein) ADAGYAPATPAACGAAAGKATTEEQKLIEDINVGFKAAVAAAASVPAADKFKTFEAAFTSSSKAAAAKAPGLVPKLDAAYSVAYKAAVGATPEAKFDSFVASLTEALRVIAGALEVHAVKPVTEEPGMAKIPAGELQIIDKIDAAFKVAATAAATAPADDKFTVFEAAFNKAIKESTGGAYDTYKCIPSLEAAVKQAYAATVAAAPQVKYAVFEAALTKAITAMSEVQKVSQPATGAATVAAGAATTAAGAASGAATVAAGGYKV"
quantitative_result = 0.611

[[record]]
binder = "rPhl p 5b deletion mutant DM3 (deletion A154-T177, A220T) (protein) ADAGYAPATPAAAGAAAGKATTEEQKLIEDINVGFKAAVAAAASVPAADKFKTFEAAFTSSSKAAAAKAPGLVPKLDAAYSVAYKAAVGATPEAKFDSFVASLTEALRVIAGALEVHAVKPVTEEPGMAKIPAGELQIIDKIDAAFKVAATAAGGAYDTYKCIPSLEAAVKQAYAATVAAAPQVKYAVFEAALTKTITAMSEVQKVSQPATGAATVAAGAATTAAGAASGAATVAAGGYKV"
quantitative_result = 0.099


Which measured allergenic potency (Prel) at 25% inhibition (relative to native Phl p 5b) value corresponds to recombinant Phl p 5b (wild type) (protein) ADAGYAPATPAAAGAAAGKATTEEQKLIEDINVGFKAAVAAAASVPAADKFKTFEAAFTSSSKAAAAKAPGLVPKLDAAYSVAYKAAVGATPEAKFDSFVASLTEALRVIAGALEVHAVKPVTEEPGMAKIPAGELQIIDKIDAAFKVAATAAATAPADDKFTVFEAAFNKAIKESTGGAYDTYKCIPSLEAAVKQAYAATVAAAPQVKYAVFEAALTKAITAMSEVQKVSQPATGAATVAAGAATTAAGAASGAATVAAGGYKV ?
1.7
